# target_or_test_system: T1, FZD8-Fc (Homo sapiens, UniProt Q9H461)
# T1 construct: segment consists of an extracellular portion of Frizzled which includes the CRD; Fc (C)
# T1 sequence (Q9H461 30-151 limits assumed): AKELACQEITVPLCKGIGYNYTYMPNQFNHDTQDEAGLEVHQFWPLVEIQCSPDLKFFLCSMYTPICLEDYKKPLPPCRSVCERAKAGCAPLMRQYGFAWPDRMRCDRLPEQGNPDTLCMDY
# assay_info: Surface plasmon resonance analysis of IgG binding to Frizzled-Fc chimera
# protocol_conditions: SPR, FZD8-Fc
measured_attribute: Ka (association constant) (M⁻¹ s⁻¹)
Please state the figure in M⁻¹ s⁻¹; there is no need to write the unit.

In: Record request: Ka (association constant) value, item IgG-2921: anti-FZD5 IgG molecule incorporating antibody variable region Fv-2921 (antibody, V domains shown) VH: EVQLVESGGGLVQPGGSLRLSCAASGFNISYYYIHWVRQAPGKGLEWVASIYPSSGSTSYADSVKGRFTISADTSKNTAYLQMNSLRAEDTAVYYCARGAMDYWGQGTLVTVSS VL: DIQMTQSPSSLSASVGDRVTITCRASQSVSSAVAWYQQKPGKAPKLLIYSASSLYSGVPSRFSGSRSGTDFTLTISSLQPEDFATYYCQQWYAGSLITFGQGTKVEIK
Out: 1.11e+06

Next item in the queue.
In: Record request: Ka (association constant) value, item IgG-2910: anti-FZD5 IgG molecule incorporating antibody variable region Fv-2910 (antibody, V domains shown) VH: EVQLVESGGGLVQPGGSLRLSCAASGFNISYSYMHWVRQAPGKGLEWVASIYSSSSSTSYADSVKGRFTISADTSKNTAYLQMNSLRAEDTAVYYCARGAMDYWGQGTLVTVSS VL: DIQMTQSPSSLSASVGDRVTITCRASQSVSSAVAWYQQKPGKAPKLLIYSASSLYSGVPSRFSGSRSGTDFTLTISSLQPEDFATYYCQQWYGSHLITFGQGTKVEIK
Out: 533000

Data provenance is patent US20210253718A1.
